All values here come from patent US20150299265A1.

target: Human HER2 expressed on tumour cells (human, UniProt P04626 23-1255); assay: cell-based or functional assay
Listing of recorded % activity vs. DARPin # 41, BT474 cell proliferation by entry.
Lab book: enter the figure in %, no units written.

Solved cases below.
[
  {
    "Binder": "DARPin #23 (designed binder) MRGSHHHHHHGSDLGDKLLQSDLGIKLLFAAAKSQDDEVRILLAAGADVNAKDFQSVTPLHIAAQSGHLEIVEVLLKAGADVNAKDVTGDTPLHLAAQHGHLEIVEVLLKAGADVNAQDERGWTPADLAADWGHEDIAEVLQKLGGGGSGGGGSRSDLGAKLLVAATSGQDDEVRILLAAGADVNAKDRIGFTPLHRAAFVGHLEIVEVLLKAGADVNAQDDFGHTPADLAASLGHEDIAEVLQKLN",
    "Quantitative Readout": 97.3
  },
  {
    "Binder": "DARPin #22 (designed binder) MRGSHHHHHHGSDLGDKLLQSDLGIKLLFAAAKSQDDEVRILLAAGADVNAKDFQSVTPLHIAAQSGHLEIVEVLLKAGADVNAKDVTGDTPLHLAAQHGHLEIVEVLLKAGADVNAQDERGWTPADLAADWGHEDIAEVLQKLGGGGSGGGGSRSDLGIKLLQAANLGQDDEVRILLATGADVNAKDSIGQTPLHWAARRGHLEIVEVLLKAGADVNAKDEYGVTPLHLAASLGHLEIVEVLLKAGADVNAQDESGETPADLAALHGHEDIAEVLQKLN",
    "Quantitative Readout": 60.1
  },
  {
    "Binder": "DARPin #27 (designed binder) MRGSHHHHHHGSDLGVKLLWAAARGQDDEVRILLAAGADVNAKDFQGITPLHIAATNGHLEIVEVLLKAGADVNAKDITGETPLHHAADSGHLEIVEVLLKAGADVNAQDKAGVTPADLAAAWGHEDIAEVLQKLGGGGSGGGGSRSDLGIKLLQAANLGQDDEVRILLATGADVNAKDSIGQTPLHWAARRGHLEIVEVLLKAGADVNAKDEYGVTPLHLAASLGHLEIVEVLLKAGADVNAQDESGETPADLAALHGHEDIAEVLQKLN",
    "Quantitative Readout": 37.8
  }
]

Input line: Requested field: % activity vs. DARPin # 41, BT474 cell proliferation. Item: DARPin #47 (designed binder) MRGSHHHHHHGSDLGDKLLQSDLGIKLLFAAAKSQDDEVRILLAAGADVNAKDFQSVTPLHIAAQSGHLEIVEVLLKAGADVNAKDVTGDTPLHLAAQHGHLEIVEVLLKAGADVNAQDERGWTPADLAADWGHEDIAEVLQKLGGGGSGGGGSRSDLGIKLLVAAAQGQDDEVRILLAAGADVNAKDQQGATPLHLAAWKGHLEIVEVLLKAGADVNAKDLSGDTPLHIAAWFGHLEIVEVLLKAGADVNAQDTEGYTPADLAALYGHEDIAEVLQKLN
Output line: 6.8

Input line: Give its % activity vs. DARPin # 41, BT474 cell proliferation value. Item: DARPin #40 (designed binder) MRGSHHHHHHGSDLGHKLLEAAVAGQDDEVRILLAAGADVNAKDWYGKTPLHFAAGLGHLEIVEVLLKAGADVNAKDEDGQTPLHLAAAYGHLEIVEVLLKAGADVNAQDNDGFTPADLAADSGHEDIAEVLQKLGGGGSGGGGSRSDLGKKLLEAARAGQDDEVRILMANGADVNAKDEYGLTPLYLATAHGHLEIVEVLLKNGADVNAVDAIGFTPLHLAAFIGHLEIAEVLLKHGADVNAQDKFGKTAFDISIGNGNEDLAEILQKLN
Output line: 91.2

Input line: Data request, read-out % activity vs. DARPin # 41, BT474 cell proliferation, for DARPin #24 (designed binder) MRGSHHHHHHGSDLGDKLLQSDLGIKLLFAAAKSQDDEVRILLAAGADVNAKDFQSVTPLHIAAQSGHLEIVEVLLKAGADVNAKDVTGDTPLHLAAQHGHLEIVEVLLKAGADVNAQDERGWTPADLAADWGHEDIAEVLQKLGGGGSGGGGSRSDLGKKLLEAARAGQDDEVRILMANGADVNAKDEYGLTPLYLATAHGHLEIVEVLLKNGADVNAVDAIGFTPLHLAAFIGHLEIAEVLLKHGADVNAQDKFGKTAFDISIGNGNEDLAEILQKLN
Output line: 99.9

Input line: Sample DARPin #34 (designed binder) MRGSHHHHHHGSDLGIKLLFAASRGQDDEVRILLAAGADVNAKDFEGITPLHAAARSGHLEIVEVLLKAGADVNAKDVEGWTPLHYAASYGHLEIVEVLLKAGADVNAQDNHGATPADLAAQWGHEDIAEVLQKLGGGGSGGGGSRSDLGKKLLEAARAGQDDEVRILMANGADVNAKDEYGLTPLYLATAHGHLEIVEVLLKNGADVNAVDAIGFTPLHLAAFIGHLEIAEVLLKHGADVNAQDKFGKTAFDISIGNGNEDLAEILQKLN — what was its % activity vs. DARPin # 41, BT474 cell proliferation?
Output line: 95.1
